src = patent US10189863B2

Tested on: RSV B Washington strain
experiment.summary: Assessment of RSV induced CPE in HEp2 cells (RSV B Washington strain)
Type: cell-based
settings: human respiratory syncytial virus, HEp-2, 144 h; HEp2 cells, 1 MOI, 6 days; read-out: RSV B CPE IC50
measured.parameter: IC50 (nM)

                                         smi  qualifier_operator  meas_value
 0  O=C(Nc1c(F)cccc1F)c1cc2c(s1)-c1ccccc1N(C(=O)c1ccc(NC(=O)c3cc4c(nc3N3CC5(CCOCC5)C3)CCOC4)cc1)CC2                   =         7.6
 1  Cc1cnc(N2CC3(CCOCC3)C2)c(C(=O)Nc2ccc(C(=O)N3CCc4cc(C(=O)Nc5ccccc5C)sc4-c4ccccc43)cc2)c1                   =        62.8
 2  O=C(Nc1ccc(Cl)cc1F)c1cc2c(s1)-c1ccccc1N(C(=O)c1ccc(NC(=O)c3cccnc3N3CC4(CCOCC4)C3)cc1)CC2                   =         100
 3  C#Cc1ccc(NC(=O)c2cc3c(s2)-c2ccccc2N(C(=O)c2ccc(NC(=O)c4cccnc4N4CC5(CCOCC5)C4)cc2)CC3)cc1                   >        1440
 4  Cc1cccc(F)c1NC(=O)c1cc2c(s1)-c1ccccc1N(C(=O)c1ccc(NC(=O)c3cc4ccccc4nc3N3CC4(CCOCC4)C3)cc1)CC2                   =         1.5
 5  Cc1cccc(F)c1NC(=O)c1cc2c(s1)-c1ccccc1N(C(=O)c1ccc(NC(=O)c3cc4c(nc3N3CC5(CCOCC5)C3)CCC4)cc1)CC2                   =         1.3
 6  O=C(Nc1c(F)cccc1Cl)c1cc2c(s1)-c1ccccc1N(C(=O)c1ccc(NC(=O)c3cccnc3N3CC4(CCOCC4)C3)cc1F)CC2                   =        49.6
 7  Cc1cnc(N2CC3(CCOCC3)C2)c(C(=O)Nc2ccc(C(=O)N3CCc4cc(C(=O)Nc5ccccc5F)sc4-c4ccccc43)cc2)c1                   =         9.7
 8  Cc1ccccc1NC(=O)c1cc2c(s1)-c1ccccc1N(C(=O)c1ccc(NC(=O)c3cccnc3N3CC4(CCOCC4)C3)cc1)CC2                   =        54.5
 9  Cc1cccc(C#N)c1NC(=O)c1cc2c(s1)-c1ccccc1N(C(=O)c1ccc(NC(=O)c3cc4c(nc3N3CC5(CCOCC5)C3)CCC4)cc1F)CC2                   =        19.2
10  COCc1cnc(N2CC3(CCOCC3)C2)c(C(=O)Nc2ccc(C(=O)N3CCc4cc(C(=O)Nc5c(F)cccc5Cl)sc4-c4ccccc43)cc2)c1                   =         6.5
11  Cc1cnc(N2CC3(CCOCC3)C2)c(C(=O)Nc2ccc(C(=O)N3CCc4cc(C(=O)Nc5c(C)cccc5C#N)sc4-c4ccccc43)cc2)c1                   =         0.9

----------
experiment.summary: Cell viability: resazurin assay
Type: cell-based, human
settings: human, HEp2 cells
measured.parameter: CC50 at 5 days

In [3]: df
Out[3]:
                                        smi  measured_parameter  meas_value
0  Cc1ccccc1NC(=O)c1cc2c(s1)-c1ccccc1N(C(=O)c1ccc(NC(=O)c3cc(C)c(C)nc3N3CC4(CCOCC4)C3)cc1)CC2      CC50 at 5 days     > 14 µM
1  Cc1cnc(N2CCC3(CC2)COC3)c(C(=O)Nc2ccc(C(=O)N3CCc4cc(C(=O)Nc5c(F)cccc5F)sc4-c4ccccc43)cc2)c1      CC50 at 5 days   > 13.9 µM
2  O=C(Nc1ccccc1)c1cc2c(s1)-c1ccccc1N(C(=O)c1ccc(NC(=O)c3cccnc3N3CC4(CCOCC4)C3)cc1)CC2      CC50 at 5 days   > 14.9 µM
3  Cc1cccc(C#N)c1NC(=O)c1cc2c(s1)-c1ccccc1N(C(=O)c1ccc(NC(=O)c3cc4c(nc3N3CC5(CCOCC5)C3)CCC4)cc1F)CC2      CC50 at 5 days     > 13 µM
4  Cc1cnc(N2CCC3(CC2)COC3)c(C(=O)Nc2ccc(C(=O)N3CCc4cc(C(=O)Nc5c(C)cccc5F)sc4-c4ccccc43)cc2)c1      CC50 at 5 days     > 14 µM
5  Cc1cnc(N2CC3(CCOCC3)C2)c(C(=O)Nc2ccc(C(=O)N3CCc4cc(C(=O)Nc5c(F)cc(F)cc5F)sc4-c4ccccc43)cc2)c1      CC50 at 5 days   > 13.6 µM
